# GI50 per entry
# Test system: lncap (prostate cancer cells)
# assay-remarks: MTT cancer cell growth inhibition
# Type: cell-based
# measurement-setup: Homo sapiens, LNCaP, 72 h, lncap cells, MTT, 72 hours incubation; read-out: GI50 lnca
Form entry: enter the amount, then its unit.

compound | tested-target | GI50
C/C=C1\NC(=O)c2nc(ccc2SC)CNC(=O)C[C@@H](/C=C/CCSC(C)=O)OC(=O)[C@H](Cc2ccccc2)NC1=O [Compound 186] | lncap (prostate cancer cells) | 30 nM
C/C=C1\NC(=O)c2cc(SCC)cc(n2)CNC(=O)C[C@@H](/C=C/CCSC(=O)CCCCCC)OC(=O)[C@H](C(C)C)NC1=O [Compound 251] | lncap (prostate cancer cells) | 90 nM
C/C=C1\NC(=O)c2cc(SC)cc(n2)CNC(=O)C[C@@H](/C=C/CCSC(=O)CCCCCCC)OC(=O)[C@H](CC)NC1=O [Compound 172] | lncap (prostate cancer cells) | 20 nM
C/C=C1\NC(=O)c2ccc(SC)c(n2)CNC(=O)C[C@@H](/C=C/CCSC(=O)CCC)OC(=O)[C@H](C(C)C)NC1=O [Compound 161] | lncap (prostate cancer cells) | 70 nM
C/C=C1\NC(=O)c2nc(ccc2SC)CNC(=O)C[C@@H](/C=C/CCS)OC(=O)[C@H](C(C)C)NC1=O [Compound 226] | lncap (prostate cancer cells) | 30 nM

// query Please supply the value of reported GI50 for the item C/C=C1\NC(=O)c2nc(ccc2SC)CNC(=O)C[C@@H](/C=C/CCSC(C)=O)OC(=O)[C@H](C(C)C)NC1=O [Compound 165]
// result 20 nM

###

# Test system: MOLT-4 (human acute lymphoblastic leukemia cells)
# assay-remarks: MTT cancer cell growth inhibition
# Type: cell-based
# measurement-setup: Homo sapiens, MOLT-4, 72 h, MOLT-4 cells, MTT, 72 hours incubation; read-out: GI50 Mol
readout-name: GI50 (nM)
Output spec: scalar in nM, unitless text.

Answered cases to consult:
molecular-string | unit-abbrev | GI50
C/C=C1\NC(=O)c2nc(ccc2SC)CNC(=O)C[C@@H](/C=C/CCSC(C)=O)OC(=O)[C@H](CCCCNC(=O)OCC2c3ccccc3-c3ccccc32)NC1=O | nM | 20
C=C1NC(=O)c2cc(SC)cc(n2)CNC(=O)C[C@@H](/C=C/CCSC(C)=O)OC(=O)[C@H](C)NC1=O | nM | 30

Continue with the compound presented below.
// query Please supply the value of reported GI50 for the item C/C=C1\NC(=O)c2cc(SC)cc(n2)CNC(=O)C[C@@H](/C=C/CCSC(C)=O)OC(=O)[C@H](Cc2cccc3ccccc23)NC1=O
// result 30

###

# Test system: HT1080 (human fibrosarcoma cells)
# assay-remarks: MTT cancer cell growth inhibition
# Type: cell-based
# measurement-setup: Homo sapiens, HT-1080, 72 h, HT1080 cells, MTT, 72 hours incubation; read-out: GI50 HT1
readout-name: GI50

molecule | tested-target | GI50
C/C=C1\NC(=O)c2ccc(SCC)c(n2)CNC(=O)C[C@@H](/C=C/CCSC(=O)CCCCCC)OC(=O)[C@H](C(C)C)NC1=O [Compound 252] | HT1080 (human fibrosarcoma cells) | 40 nM
C/C=C1\NC(=O)c2ccc(SC)c(n2)CNC(=O)C[C@@H](/C=C/CCSC(=O)CCCCC)OC(=O)[C@H](C(C)C)NC1=O [Compound 155] | HT1080 (human fibrosarcoma cells) | 90 nM
C/C=C1\NC(=O)c2cccc(n2)CNC(=O)C[C@@H](/C=C/CCSC(=O)CCCCCCC)OC(=O)[C@H](CC(C)C)NC1=O [Compound 241] | HT1080 (human fibrosarcoma cells) | 30 nM
C/C=C1\NC(=O)c2cc(SC)cc(n2)CNC(=O)C[C@@H](/C=C/CCSC(C)=O)OC(=O)[C@H](Cc2ccc(O)cc2)NC1=O [Compound 202] | HT1080 (human fibrosarcoma cells) | 30 nM
C/C=C1\NC(=O)c2cc(SC)cc(n2)CNC(=O)C[C@@H](/C=C/CCSC(=O)CCCCCCC)OC(=O)[C@H](C)NC1=O [Compound 181] | HT1080 (human fibrosarcoma cells) | 60 nM
C/C=C1\NC(=O)c2cc(SC)cc(n2)CNC(=O)C[C@@H](/C=C/CCSC(=O)CC)OC(=O)[C@H](C(C)C)NC1=O [Compound 163] | HT1080 (human fibrosarcoma cells) | 10 nM
C/C=C1\NC(=O)c2ccc(SCCC)c(n2)CNC(=O)C[C@@H](/C=C/CCSC(=O)CCCCCCC)OC(=O)[C@H](CC)NC1=O [Compound 176] | HT1080 (human fibrosarcoma cells) | 30 nM
C/C=C1\NC(=O)c2cc(SC)cc(n2)CNC(=O)C[C@@H](/C=C/CCS)OC(=O)[C@H](C(C)C)NC1=O [Compound 227] | HT1080 (human fibrosarcoma cells) | 70 nM
CCCCCCCC(=O)SCC/C=C/[C@@H]1CC(=O)NCc2cccc(n2)C(=O)NCC(=O)N[C@@H](C(C)C)C(=O)O1 [Compound 246] | HT1080 (human fibrosarcoma cells) | 10 nM
C/C=C1\NC(=O)c2nc(ccc2SC)CNC(=O)C[C@@H](/C=C/CCSC(C)=O)OC(=O)[C@H](CC)NC1=O [Compound 177] | HT1080 (human fibrosarcoma cells) | 30 nM

// query Please supply the value of reported GI50 for the item C/C=C1\NC(=O)c2cc(SC)cc(n2)CNC(=O)C[C@@H](/C=C/CCSC(=O)CCCCCC)OC(=O)[C@H](C(C)C)NC1=O [Compound 151]
// result 90 nM

// query Please supply the value of reported GI50 for the item CSc1cc2nc(c1)C(=O)NC(=C(C)C)C(=O)N[C@@H](C(C)C)C(=O)O[C@H](/C=C/CCSC(C)=O)CC(=O)NC2 [Compound 208]
// result 70 nM

// query Please supply the value of reported GI50 for the item C/C=C1\NC(=O)c2ccc(SCC)c(n2)CNC(=O)C[C@@H](/C=C/CCSC(=O)CCCCCCC)OC(=O)[C@H](C(C)C)NC1=O [Compound 249]
// result 40 nM

Sourced from patent US10065990B2
